Biological target: recombinant α1b-adrenoceptor (Homo sapiens)
Test: biochemical
experimental-readout: Ki (µM)

Here's what some known entries look like.
May I ask what Ki has been recorded for "O=C(NCCCN1CCN(c2ccc(F)cc2OCC(F)(F)F)CC1)c1conc1-c1ccc(F)cc1" ?
0.0281

For "Cc1onc(-c2ccccc2)c1C(=O)NCCCN1CCN(c2cc(Cl)ccc2O)CC1" , what is its reported Ki?
0.00997

Request the reported Ki associated with "COc1ccc(Cl)cc1N1CCN(CCCNC(=O)c2c(-c3ccccc3)noc2C)CC1"
0.0236

What Ki value was documented for this compound, "Cc1onc(-c2c(Cl)cccc2Cl)c1C(=O)NCCCN1CCN(c2ccc(F)cc2OCC(F)(F)F)CC1" ?
0.0242

P. Cc1onc(-c2c(F)cccc2Cl)c1C(=O)NCCCN1CCN(c2ccc(F)cc2OCC(F)(F)F)CC1
Q. Cc1onc(-c2ccccc2)c1C(=O)NCCCN1CCN(c2ccccc2OCC(F)(F)F)CC1
R. Cc1onc(-c2ccccc2)c1C(=O)NCCCN1CCN(c2cc(Cl)ccc2OS(=O)(=O)C(F)(F)F)CC1
S. Cc1onc(-c2ccccc2)c1C(=O)NCCCN1CCN(c2ccc(F)cc2OCC(F)(F)F)CC1
Rank ascending by Ki. Reply format: the labels, ordered as requested.
R, P, Q, S
(R: 0.00749 µM, P: 0.0241 µM, Q: 0.0362 µM, S: 0.0695 µM)

* * *

Molecular target: recombinant α1b-adrenoceptor (Homo sapiens, UniProt P35368)
Sequence (P35368 1-520): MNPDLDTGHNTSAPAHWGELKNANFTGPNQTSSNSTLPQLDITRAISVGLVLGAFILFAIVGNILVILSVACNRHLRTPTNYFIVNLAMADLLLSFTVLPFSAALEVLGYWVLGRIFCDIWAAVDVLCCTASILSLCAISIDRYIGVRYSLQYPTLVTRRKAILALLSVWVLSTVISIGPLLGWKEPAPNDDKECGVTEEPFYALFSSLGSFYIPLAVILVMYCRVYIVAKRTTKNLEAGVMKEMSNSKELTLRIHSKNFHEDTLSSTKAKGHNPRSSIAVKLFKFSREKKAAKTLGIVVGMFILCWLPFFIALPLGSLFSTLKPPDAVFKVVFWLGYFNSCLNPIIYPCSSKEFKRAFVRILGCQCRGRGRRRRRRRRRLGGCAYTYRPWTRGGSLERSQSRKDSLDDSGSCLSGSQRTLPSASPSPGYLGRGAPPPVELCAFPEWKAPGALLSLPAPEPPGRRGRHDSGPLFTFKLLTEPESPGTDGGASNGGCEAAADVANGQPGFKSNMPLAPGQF
Assay: biochemical
pKi: −log10 of the molar value.
experimental-readout: pKi

Consider the molecule "Cc1onc(-c2ccccc2Cl)c1C(=O)NCCCN1CCN(c2ccc(F)cc2OCC(F)(F)F)CC1" and give its measured pKi.
7.51

Item "Cc1onc(-c2ccccc2)c1C(=O)NCCCN1CCN(c2cc(F)ccc2OCC(F)(F)F)CC1" has what recorded pKi?
7.94

1. Cc1onc(-c2c(F)cccc2Cl)c1C(=O)NCCCN1CCN(c2ccccc2OCC(F)(F)F)CC1
2. COc1ccc(OCC(F)(F)F)cc1N1CCN(CCCNC(=O)c2c(-c3ccccc3)noc2C)CC1
Between the entries labelled 1 and 2 , which has a larger pKi value on record? # answer = label of selected item
1
(1: 7.67, 2: 6.24)
